- experimental-protocol: log P (pH2.3)
- Assay type: physicochemical
- condition-summary: reversed-phase HPLC column (C18); method [b]: LC-MS, acidic range, pH 2.7, 0.1% aqueous formic acid and acetonitrile
Can you tell me chromatographic logP for the items I'm about to list?
The reply should be a number, written without any unit.

(Q) GET /values?readout=chromatographic logP&item= "O=C(Cc1cc(C(F)(F)F)ccc1Cl)N1CCC(c2nc(CCc3ccccc3)cs2)CC1"
(A) 4.73

(Q) GET /values?readout=chromatographic logP&item= "Cn1ncc(CC(=O)N2CCC(c3nc(CCc4ccccc4)cs3)CC2)c1Cl"
(A) 2.98

(Q) GET /values?readout=chromatographic logP&item= "O=C(Cn1cc2ccccc2n1)N1CCC(c2nc(CCc3ccccc3)cs2)CC1"
(A) 3.14

(Q) GET /values?readout=chromatographic logP&item= Cc1c(Cl)c(C(F)(F)F)nn1C(C)C(=O)N1CCC(c2nc(CCc3ccccc3)cs2)CC1 (centres unmarked)
(A) 4.62

(Q) GET /values?readout=chromatographic logP&item= Cc1cc(C(F)(F)F)nn1CC(=O)N1CCC(c2nc(/C=C\CC(C)c3ccccc3)cs2)CC1 (centres unmarked)
(A) 4.84

###

- experimental-protocol: log P (pH2.3)
- Type: physicochemical
- condition-summary: method [b]: LC-MS, acidic range, pH 2.7, 0.1% aqueous formic acid and acetonitrile
Can you tell me log p for the items I'm about to list?

(Q) GET /values?readout=log p&item= Cc1ccccc1CCc1csc(C2CCN(C(=O)Cn3nc(C(F)(F)F)cc3C)CC2)n1 [Example I-126]
(A) 4.08^[b]

(Q) GET /values?readout=log p&item= COc1ccc(OC)c(C#Cc2csc(C3CCN(C(=O)Cn4nc(C(F)(F)F)cc4C)CC3)n2)c1 [Example I-106]
(A) 3.65^[b]

(Q) GET /values?readout=log p&item= Cc1cc(C(F)(F)F)nn1CC(=O)N1CCC(c2nc(/C=C/c3ccccc3)cs2)CC1 [Example I-26]
(A) 3.99^[b]

(Q) GET /values?readout=log p&item= O=C(Cn1ccc(C(F)(F)F)n1)N1CCC(c2nc(/C=C\c3ccc4ccccc4c3)cs2)CC1 [Example I-21]
(A) 4.35^[b]

(Q) GET /values?readout=log p&item= CCc1cc(C(F)(F)F)nn1CC(=O)N1CCC(c2nc(CCc3cccc4ccccc34)cs2)CC1 [Example I-108]
(A) 4.65^[b]

(Q) GET /values?readout=log p&item= CCc1cc(CC)n(CC(=O)N2CCC(c3nc(C#Cc4cccc5ccccc45)cs3)CC2)n1 [Example I-115]
(A) 4.2^[b]

(Q) GET /values?readout=log p&item= C#Cc1csc(C2CCN(C(=O)Cc3cc(Cl)ccc3Cl)CC2)n1 [Example I-125]
(A) 3.08^[b]

(Q) GET /values?readout=log p&item= O=C(Cc1cccc(C(F)(F)F)c1)N1CCC(c2nc(CCc3ccccc3)cs2)CC1 [Example I-56]
(A) 4.26^[b]

(Q) GET /values?readout=log p&item= O=C(Cn1nc(C(F)(F)F)cc1C(F)(F)F)N1CCC(c2nc(CCc3ccccc3)cs2)CC1 [Example I-59]
(A) 4.45^[b]

(Q) GET /values?readout=log p&item= Cc1cc(C)n(CC(=O)N2CCC(c3nc(/C=C/c4ccccc4)cs3)CC2)n1 [Example I-84]
(A) 3.04^[b]

(Q) GET /values?readout=log p&item= Cc1cc(C(F)(F)F)nn1CC(=O)N1CCC(c2nc(CCC3CCCc4ccccc43)cs2)CC1 (centres unmarked) [Example I-133]
(A) 4.95^[b]

(Q) GET /values?readout=log p&item= Cc1c(Cl)c(C(F)(F)F)nn1CC(=O)N1CCC(c2nc(/C=C\c3cccc(C(F)(F)F)c3)cs2)CC1 [Example I-17]
(A) 5.03^[b]

(Q) GET /values?readout=log p&item= CC(C)(C)c1cc(C(F)(F)F)n(CC(=O)N2CCC(c3nc(CCc4cccc5ccccc45)cs3)CC2)n1 [Example I-110]
(A) 5.36^[b]

(Q) GET /values?readout=log p&item= CCc1cc(C(F)(F)F)nn1CC(=O)N1CCC(c2nc(C#Cc3cccc4ccccc34)cs2)CC1 [Example I-116]
(A) 4.8^[b]

###

- experimental-protocol: log P (pH2.3)
- Type: physicochemical
- condition-summary: method [c]: LC-MS, neutral range, pH 7.8, 0.001 molar aqueous ammonium bicarbonate solution and acetonitrile; HPLC on reversed-phase C 18
measured-metric: log p

(Q) GET /values?readout=log p&item= "O=C(Cn1nc(C(F)F)cc1C(F)F)N1CCC(c2nc(C#Cc3c(F)cccc3F)cs2)CC1"
(A) 3.73^[c];

(Q) GET /values?readout=log p&item= "Cc1cccnc1C#Cc1csc(C2CCN(C(=O)Cc3cc(Cl)ccc3Cl)CC2)n1"
(A) 3.55^[c]

(Q) GET /values?readout=log p&item= "Cc1ccc(C)c(CC(=O)N2CCC(c3nc(CCc4c(F)cccc4F)cs3)CC2)c1"
(A) 4.55^[c];

(Q) GET /values?readout=log p&item= "Cc1cccnc1C#Cc1csc(C2CCN(C(=O)Cn3nc(C(F)F)cc3C(F)F)CC2)n1"
(A) 2.86^[c];

(Q) GET /values?readout=log p&item= "Cc1ccc(C)c(CC(=O)N2CCC(c3nc(C#Cc4ccccc4Br)cs3)CC2)c1"
(A) 4.8^[c];

(Q) GET /values?readout=log p&item= "Cc1ccccc1C#Cc1csc(C2CCN(C(=O)Cn3nc(C(F)(F)F)cc3C)CC2)n1"
(A) 4.15^[c];

(Q) GET /values?readout=log p&item= "Cc1cccnc1C#Cc1csc(C2CCN(C(=O)Cn3nc(C(F)(F)F)cc3C)CC2)n1"
(A) 2.95^[c];

(Q) GET /values?readout=log p&item= "C#Cc1csc(C2CCN(C(=O)Cc3cc(C)ccc3C)CC2)n1"
(A) 2.95^[c]

(Q) GET /values?readout=log p&item= "Cc1ccc(C)c(CC(=O)N2CCC(c3nc(C#Cc4c(C)noc4C)cs3)CC2)c1"
(A) 3.71^[c];

(Q) GET /values?readout=log p&item= "Cc1ccc(C)c(CC(=O)N2CCC(c3nc(/C=C\c4ccccc4C)cs3)CC2)c1"
(A) 4.95^[c];

(Q) GET /values?readout=log p&item= "Cc1ccccc1C#Cc1csc(C2CCN(C(=O)Cn3nc(C(F)F)cc3C(F)F)CC2)n1"
(A) 4.02^[c];
